System: Mycobacterium tuberculosis
Assay procedure: Antitubercular activity against Mycobacterium tuberculosis H37Rv after 24 hrs by broth microdilution method
Type: functional
Property label: MIC (µg/mL)
Give the number; µg/mL is assumed, so skip it.

[
  {
    "Smiles repr": "CO[C@H]1/C=C/O[C@@]2(C)Oc3c(C)c(O)c4c(O)c(c(/C=N/N5CCN(C)CC5)c(O)c4c3C2=O)NC(=O)/C(C)=C\\C=C\\[C@H](C)[C@H](O)[C@@H](C)[C@@H](O)[C@@H](C)[C@H](OC(C)=O)[C@@H]1C",
    "MIC / µg/mL": 0.5
  },
  {
    "Smiles repr": "COc1ccccc1NC(=O)Nc1c(-c2ccc(F)cc2)nc2ccccc2c1O",
    "MIC / µg/mL": 1
  },
  {
    "Smiles repr": "O=C(Nc1ccc(F)cc1)Nc1c(-c2ccc(F)cc2)nc2ccccc2c1O",
    "MIC / µg/mL": 10
  }
]

Value lookup for MIC; key = Fc1cccc(-c2nc3ccccc3c3oc(NCc4ccccc4)nc23)c1
1

Next record, please: Fc1ccc(Nc2nc3c(-c4cccc(F)c4)nc4ccccc4c3o2)cc1
1

Another: O=C(NCc1ccccc1)Nc1c(-c2ccc(F)cc2)nc2ccccc2c1O
10

Also need Cc1cc(C)cc(Nc2nc3c(-c4ccc(F)cc4)nc4ccccc4c3o2)c1 , thanks.
10

For COc1ccccc1NC(=O)Nc1c(-c2cccc(F)c2)nc2ccccc2c1O then?
1

Field entry: Fc1ccc(-c2nc3ccccc3c3oc(NCc4ccccc4)nc23)cc1
10

Can you check NNC(=O)c1ccncc1 next?
1.5

----------
System: Staphylococcus aureus
Assay procedure: Antimicrobial activity against Staphylococcus aureus […] after 16 to 18 hrs by serial dilution method
Assay type: functional
Property label: MIC (µg/mL)
API: value field is a number in µg/mL; no unit string.

[
  {
    "Smiles repr": "O=C(NCc1ccccc1)Nc1c(-c2ccc(F)cc2)nc2ccccc2c1O",
    "MIC (µg/mL)": 6.25
  },
  {
    "Smiles repr": "CCCCCNC(=O)Nc1c(-c2cccc(F)c2)nc2ccccc2c1O",
    "MIC (µg/mL)": 12.5
  }
]

Now turn to the next compound.
// MIC lookup, key: O=C(Nc1ccccc1)Nc1c(-c2cccc(F)c2)nc2ccccc2c1O
6.25
